Provenance of the data: the Human Domainome abundance scans (Beltran et al. 2025)

B1: Transcriptional repressor p66-beta, residues 415 to 455; numbered along this chain, Q8WXI9 (parent)
chain: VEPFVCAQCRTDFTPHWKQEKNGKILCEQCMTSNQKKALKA

Variants of: B1
EXPERIMENT DESCRIPTION: abundance fitness (aPCA) (normalised: wild type 0, dead -1); higher = more abundant; growth selection in yeast, the domain comes from the species named
EXPERIMENTAL PARAMETERS: Homo sapiens
Would you kindly list abundance fitness for each of these variants?

Specify measured abundance fitness for K21W .
0.037

Specify measured abundance fitness for K37P .
0.1

Specify measured abundance fitness for T14R .
-0.237

Specify measured abundance fitness for K36P .
-0.242

Specify measured abundance fitness for C9E .
-0.235

Specify measured abundance fitness for S33A .
-0.04

Specify measured abundance fitness for F13H .
-0.244

Specify measured abundance fitness for K18W .
-0.195

Specify measured abundance fitness for M31Q .
0.05

Specify measured abundance fitness for K24V .
-0.148

Specify measured abundance fitness for K18R .
-0.072

Specify measured abundance fitness for Q29D .
-0.083

Specify measured abundance fitness for T32F .
-0.143

Specify measured abundance fitness for H16G .
-0.022

Specify measured abundance fitness for E20C .
0.158

Specify measured abundance fitness for K24Q .
0.097

Specify measured abundance fitness for N22A .
0.05

Specify measured abundance fitness for H16C .
0.072

Specify measured abundance fitness for Q8K .
0.788

Specify measured abundance fitness for Q35A .
-0.117

Specify measured abundance fitness for H16R .
-0.05

Specify measured abundance fitness for K40M .
-0.066
